Measured interaction score values are reported for all entries that follow.
testSystem: T1, P2-AA-12HGe-A
T1 chain: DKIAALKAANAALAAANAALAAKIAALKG
methodSummary: two-hybrid library CCmax;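 further: natural log of median RNA to DNA barcode read ratio; higher means stronger binding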
particulars: mean of both orientations
measuredQuantity: interaction score

>>> assayresult("DEIAALEAENAALEAENAALEAEIAALEG [P1-AA]")
1.83
>>> assayresult("DEIAALEAMNAALMAMNAALMAEIAALEG [P1-AA-12HGe-M]")
1.71
>>> assayresult("DEIAALEAANAALAAANAALAAEIAALEG [P1-AA-12HGe-A]")
1.6
>>> assayresult("DEIAALEADNAALDADNAALDAEIAALEG [P1-AA-12HGe-D]")
-2.7
>>> assayresult("DEIAALEAYNAALYAYNAALYAEIAALEG [P1-AA-12HGe-Y]")
-0.289
>>> assayresult("DEIAALEARNAALRARNAALRAEIAALEG [P1-AA-12HGe-R]")
1.68
>>> assayresult("DEIAALEATNAALTATNAALTAEIAALEG [P1-AA-12HGe-T]")
0.941
